- Test system: HOP-62 NSCLC
- PROTOCOL NOTES: NCI-60 one-dose screen, 48 h (100 = growth as untreated, 0 = no growth, -100 = all killed)
- CONDITION DETAILS: 10 µM unless noted
The panel holds about 83,000 compounds, 20% with a hit somewhere; the sample as a whole holds those more often.
REPORTED PROPERTY: growth (%)
Answer format: numeric, % implied, no suffix.

• Nc1c(C(=O)Nc2ccccc2Cl)sc2nc3c(cc12)CN(Cc1ccccc1)CC3 = 104

Problem: Requested field: growth. Item: COC(=O)CCc1cc(O)c2c(c1)[C@@H](C(=O)OC)[C@H](c1ccc(O)c(O)c1)O2
Solution: 54.3

Problem: Another molecule: COc1ccc(NC(=O)Nc2ccc(Nc3nc(C)cc(Nc4ccc(C)cc4)n3)cc2)cc1
Solution: -94.1

Problem: Another molecule: C=CCn1c(SCC(=O)Nc2ccc(C(=O)/C=C/c3cc(OC)c(OC)c(OC)c3)cc2)nnc1-c1ccc(Cl)cc1
Solution: 25

Problem: Another molecule: CCc1n(Cc2ccc3ccccc3c2)c2ccccc2[n+]1Cc1ccc2ccccc2c1
Solution: 81.3

----------
Below, each of the molecules is paired with its reported growth value.
- Test system: LOX IMVI melanoma
- PROTOCOL NOTES: NCI-60 one-dose screen, 48 h (100 = growth as untreated, 0 = no growth, -100 = all killed)
- CONDITION DETAILS: 10 µM unless noted
This is part of a sample that, as a whole, favours compounds with a hit. Of some 83,000 tested, about 20% had one in any assay.
Answer format: numeric, % implied, no suffix.

• Cc1nc2sc(C(=O)Nc3ccccc3Cl)c(N)c2cc1C(C)O (stereo not given) = 74.5

Problem: Requested field: growth. Item: COC(=O)/C=C1\SC(=Nc2ccc(C(F)(F)F)cc2)N(CCc2c[nH]c3ccccc23)C1=O
Solution: -97

Problem: Another molecule: O=C1Nc2ccc(Cl)cc2/C1=N/c1nc(-c2ccc(F)cc2)cs1
Solution: 19.5

Problem: Another molecule: O=c1[nH]c2ccccc2cc1-c1nc2ccc(Cl)cc2[nH]1
Solution: 42.4

Problem: Another molecule: O=C(CCCC(=O)Nc1ccc(-n2nnc3cc(Cl)c(Cl)cc32)cc1)Nc1ccc(-n2nnc3cc(Cl)c(Cl)cc32)cc1
Solution: 50.9

----------
- Tested on: A549/ATCC NSCLC
- PROTOCOL NOTES: NCI-60 one-dose screen, 48 h (100 = growth as untreated, 0 = no growth, -100 = all killed)
- CONDITION DETAILS: 10 µM unless noted
The panel holds about 83,000 compounds, 20% with a hit somewhere; the sample as a whole holds those more often.
Parameter threshold = 90%. Response is 1 (yes) when growth meets or exceeds it, else 0 (no).

* CC(=O)Oc1c2c(nc3c1c1ccccc1n3Cc1ccccc1)-c1ccccc1C2 | 0 (no)
* CCC1=C[C@H]2CN(CCc3c([nH]c4ccccc34)[C@@](C(=O)OC)(c3cc4c(cc3OC)N(C)[C@H]3[C@@](O)(C(=O)OC)[C@H](OC(C)=O)[C@]5(CC)[C@@H]6C[C@@H]6CN6CC[C@]43[C@@H]65)C2)C1 | 0 (no)
* COc1ccc(Cl)c([N+](=O)[O-])c1 | 1 (yes)

In the following, a different compound is considered.
Problem: API: above_or_equal(metric=growth, cutoff=90%) for item COCCOCCOCc1n(Cc2ccc3ccccc3n2)c2ccccc2[n+]1Cc1ccc2ccccc2n1
Solution: 0 (no)
